// provenance: the supplement of paper PMC9732359

test: protein stability index of a GFP-peptide fusion (yeast GPS) (PSI 1-4); higher = more stable; sorted into four equal gates, so the index is relative within each strain; conditions: doa10∆
Decision: protein stability index >= 3 yields TRUE, all other cases yield FALSE.

Example cases with answers are listed next.
YDPKDALKNACNSIINK [RPB11] | TRUE
NLLKDEGVTPGRIRTTR [SSN3] | TRUE
STLYKYLKESKRKYDEI [SWI3] | TRUE
ISQKLHDSILHSRILPK [RRP43] | FALSE

Proceed to the following item.
Quick check, protein stability index >= 3? DYNKKQDRIQDVKLVLA [MED1]
FALSE
